TEST_METHOD_NOTES: HILIC, Waters ACQUITY UPLC BEH Amide, 100 × 2.1 mm, 1.7 µm; A: water + 0.125% formic acid + 10 mM ammonium formate; B: 5% water + 95% acetonitrile + 0.125% formic acid + 10 mM ammonium formate; gradient (min/%B) 0/100 2/100 7.7/70 9.5/40 10.25/30 12.75/100 17/100
EXPERIMENTAL_PARAMETERS: stereoisomer not certain
Parameter: LC retention time. Scope: all listed entries.
Please reply with the bare figure in min and do not write the unit itself.

1) NC(=O)OCC(COC(N)=O)c1ccccc1 [Felbamate] = 1.2
2) CC(=O)OC1CC(C)(C)C(=C=CC(C)=CC=CC(C)=CC=CC=C(C)C=CC=C(C)C(=O)CC23OC2(C)CC(O)CC3(C)C)C(C)(O)C1 (stereo not drawn) = 1.07
3) CN1C(CC(=O)c2ccccc2)CCCC1CC(O)c1ccccc1 (stereo not drawn) = 2.02
4) CC(CCCCC(=O)Nc1ccc(C(F)(F)F)cc1)NCCc1cnc[nH]1 (stereo not drawn) [Histamine-trifluoromethyltoluide] = 5.3
5) O=C(OC1C(Oc2ccccc2COC(=O)C2(O)C=CCCC2=O)OC(CO)C(O)C1O)c1ccccc1 (stereo not drawn) = 1.51

Summary for this compound, O=CNC1CCCCC1 [N-Cyclohexylformamide] : LC retention time is 1.2

// sample `Cc1nnc2n1-c1ccc(Cl)cc1C(c1ccccc1)=NC2` , its LC retention time was 1.34

Measured LC retention time, `O=c1n(CCCN2CCN(c3cccc(Cl)c3)CC2)nc2ccccn12` : 2.38

* * *

TEST_METHOD_NOTES: HILIC, Waters ACQUITY UPLC BEH Amide, 100 × 2.1 mm, 1.7 µm; A: water + 0.125% formic acid + 10 mM ammonium formate; B: 5% water + 95% acetonitrile + 0.125% formic acid + 10 mM ammonium formate; gradient (min/%B) 0/100 2/100 7.7/70 9.5/40 10.25/30 12.75/100 17/100
EXPERIMENTAL_PARAMETERS: stereoisomer not certain
Overview of recorded LC retention time for various compounds
Respond with a number, then the unit of measure.

1. CCCC(=O)OCC [Ethylbutanoate] = 4.88 min
2. O=c1[nH]cnc2c1ncn2C1OC(CO)C(O)C1O (stereo unspecified) = 6.19 min
3. Oc1ccc(C2COc3cc(O)ccc3C2)cc1 (stereo unspecified) = 1.19 min
4. Oc1ccc2c3c1OC1C(O)CCC4(O)C(C2)N(CC2CCC2)CCC314 (stereo unspecified) = 5.25 min
5. O=S(=O)(O)CCNC(CO)(CO)CO = 7.7 min
6. O=c1ccn(C2CC(O)C(CO)O2)c(=O)[nH]1 (stereo unspecified) = 2.96 min

Sure, the documented LC retention time for `COc1cc2nc(N3CCN(C(=O)c4ccco4)CC3)nc(N)c2cc1OC` is 3.75 min

Looking up NCCCC(N)C(=O)O (stereo unspecified) , I see its LC retention time listed as 9.6 min

Recorded LC retention time (compound `O=C(O)c1c[nH]c2ccccc12` ): 1.41 min

Form: compound = `CCCCCCCCCOc1ccc2[nH]cc(CCN)c2c1` ; LC retention time = 3.4 min

Quick note, LC retention time for CC(N)C(=O)NC(C)C(=O)O (stereo unspecified) landed at 8.41 min

* * *

TEST_METHOD_NOTES: HILIC, Waters ACQUITY UPLC BEH Amide, 100 × 2.1 mm, 1.7 µm; A: water + 0.125% formic acid + 10 mM ammonium formate; B: 5% water + 95% acetonitrile + 0.125% formic acid + 10 mM ammonium formate; gradient (min/%B) 0/100 2/100 7.7/70 9.5/40 10.25/30 12.75/100 17/100
EXPERIMENTAL_PARAMETERS: stereoisomer not certain
REPORTED_ENDPOINT: LC retention time (min)
A number alone suffices; assume min.

Example entries begin here.
1) Cc1cn(C2OC(CO)CC2O)c(=O)[nH]c1=O (stereo unspecified) [5-Methyl-3-deoxyuridine] = 2.6
2) Cc1ncc([N+](=O)[O-])n1CC(O)CCl (stereo unspecified) [Ornidazole] = 1.08
3) NC(CCCC(N)C(=O)O)C(=O)O (stereo unspecified) [2,6-Diaminopimelic acid] = 9.88
4) CNC(CC(C)C)C(=O)O (stereo unspecified) [N-Methylleucine] = 6.45
5) NCCS [2-Aminoethanethiol] = 2.05

The recorded LC retention time for CC(C)CN [Isobutylamine] is 5.04

Measured LC retention time of Cn1c(=N)ccn(C2OC(CO)C(O)C2O)c1=O (stereo unspecified) [3-Methylcytidine] : 6.99

Item: CN(C)C=O [N,N-Dimethylformamide] | LC retention time: 1.29

Consider CNCCCCC(N)C(=O)O (stereo unspecified) [N-Methyllysine] . Its measured LC retention time is 9.36

The value of LC retention time measured for the compound NC1CCN(c2nc3c(cc2F)c(=O)c(C(=O)O)cn3-c2ccc(F)cc2F)C1 (stereo unspecified) [Tosufloxacin] turned out to be 4.87

Entry NCCc1c[nH]c2ccccc12 [Tryptamine] — recorded LC retention time = 6.92

# LC retention time of O=C1OC(C(O)CO)C(O)=C1O (stereo unspecified) [Ascorbic acid] = 1.44

Value of LC retention time reported for the compound CC(C)CC(N)C(=O)NC(C)C(=O)O (stereo unspecified) [Leu-Ala] is 5

The reported value for NC(=NCc1ccc(Cl)cc1)SCCCc1cnc[nH]1 [Clobenpropit] in terms of LC retention time is 6.13

Briefly, LC retention time measured for C=C(C)C1CC=C(C)CC1 (stereo unspecified) [Limonene] : 0.92

// field: LC retention time; key: O=C(O)CNC(=O)c1ccc(O)cc1 [4-Hydroxyhippuric acid] ; value = 5.86

Lab note: measured LC retention time of C#CC1(O)CCC2C3CCc4cc(O)ccc4C3CCC21C (stereo unspecified) [Ethynylestradiol] was 0.99

For reference, reported LC retention time for OCc1ccccc1OC1OC(CO)C(O)C(O)C1O (stereo unspecified) [Salicin] stands at 4.48

* * *

TEST_METHOD_NOTES: HILIC, Waters ACQUITY UPLC BEH Amide, 100 × 2.1 mm, 1.7 µm; A: water + 0.125% formic acid + 10 mM ammonium formate; B: 5% water + 95% acetonitrile + 0.125% formic acid + 10 mM ammonium formate; gradient (min/%B) 0/100 2/100 7.7/70 9.5/40 10.25/30 12.75/100 17/100
EXPERIMENTAL_PARAMETERS: stereoisomer not certain
The compounds listed here are annotated with their LC retention time.
All answers are understood in min, so give the number only.

Observe how each entry below is paired with its result.
1. Nc1nc2c(ncn2C2CC(O)C(COP(=O)(O)O)O2)c(=O)[nH]1 (centres undefined) [2'-Deoxyguanosine 5'-monophosphate] = 9.25
2. CC1OC(Oc2c(-c3ccc(O)c(O)c3)oc3cc(O)cc(O)c3c2=O)C(O)C(O)C1O (centres undefined) [Quercetin-3-ramnoside] = 4.7
3. O=C(c1ccc(F)cc1)C1CCN(CCn2c(=S)[nH]c3ccccc3c2=O)CC1 [Altanserin] = 2.64
4. c1ccc(-c2ccc(C(c3ccccc3)n3ccnc3)cc2)cc1 (centres undefined) [Bifonazole] = 1.19
5. CN1C2CCC1C(C(=O)O)C(O)C2 (centres undefined) [Ecgonine] = 7.61
6. O=C(NCCO[N+](=O)[O-])c1cccnc1 [Nicorandil] = 1.11

Entry under test: CCCNC1CCc2nc(N)sc2C1 (centres undefined) [Pramipexole] . Its LC retention time was 5.7

NCCCCN=C(N)N [Agmatine] yielded LC retention time of 8.92

Recorded LC retention time (compound O=C1CCCC(=O)C1 [1,3 Cyclohexanedione] ): 1.47

* * *

# maps each entry to its LC retention time
TEST_METHOD_NOTES: HILIC, Waters ACQUITY UPLC BEH Amide, 100 × 2.1 mm, 1.7 µm; A: water + 0.125% formic acid + 10 mM ammonium formate; B: 5% water + 95% acetonitrile + 0.125% formic acid + 10 mM ammonium formate; gradient (min/%B) 0/100 2/100 7.7/70 9.5/40 10.25/30 12.75/100 17/100
EXPERIMENTAL_PARAMETERS: stereoisomer not certain
Answer with a number only, understood to be in min.

Answered cases to consult:
1) Nc1nc2c(ncn2C2OC3COP(=O)(O)OC3C2O)c(=O)[nH]1 (stereo not drawn) [Guanosine-3',5'-cyclic monophosphate] = 8.39
2) NC(=O)NC(NC(N)=O)C(=O)O = 8.56
3) CCOC(=O)C(C)Oc1ccc(Oc2nc3ccc(Cl)cc3o2)cc1 (stereo not drawn) = 1.01
4) O=C1Nc2ccc(Cl)cc2C(C#CC2CC2)(C(F)(F)F)O1 (stereo not drawn) = 0.98
5) COC1C(O)CC(=O)OC(C)CC=CC=CC(O)C(C)CC(CC=O)C1OC1OC(C)C(OC2CC(C)(O)C(OC(=O)CC(C)C)C(C)O2)C(N(C)C)C1O (stereo not drawn) = 2.04

Looking up `COC(=O)C1=C(C)NC(C)=C(C(=O)OC)C1c1ccccc1[N+](=O)[O-]` , I found its LC retention time recorded as 1.02

// sample COc1cc(N)c(Cl)cc1C(=O)NC1CN2CCC1CC2 (stereo not drawn) [Zacopride] , its LC retention time was 4.66

CC(=O)NC(Cc1c[nH]c2ccccc12)C(=O)O (stereo not drawn) has a reported LC retention time of 2.81
